Each entry below lists one item and its recorded IC50 value.
Test system: Hela (human cervical cancer cells)
testDetails: Antiproliferative activity (SRB assay)
Type: cell-based
testParameters: mean ± SD, three separated experiments, 72 h

| molecule | targetOrSystem | comparisonOperator | IC50, nM |
| --- | --- | --- | --- |
| COc1cc(C(=O)/C(F)=C/c2c(C)[nH]c3ccccc23)cc(OC)c1OC | Hela (human cervical cancer cells) | = | 101 |
| COc1cc(C(=O)/C(F)=C/c2ccc3occc3c2)cc(OC)c1OC | Hela (human cervical cancer cells) | = | 925 |
| COc1cc(C(=O)/C(F)=C/c2oc3ccccc3c2C)cc(OC)c1OC | Hela (human cervical cancer cells) | > | 5000 |
| COC(=O)c1cccc2[nH]cc(/C=C(\F)C(=O)c3cc(OC)c(OC)c(OC)c3)c12 | Hela (human cervical cancer cells) | > | 5000 |
| COc1cc(C(=O)/C(F)=C/c2cccc3c2OCO3)cc(OC)c1OC | Hela (human cervical cancer cells) | = | 565 |
| COc1cc(C(=O)/C(F)=C/c2c[nH]c3cc(Br)ccc23)cc(OC)c1OC | Hela (human cervical cancer cells) | = | 25 |
| COC(=O)c1ccc2[nH]cc(/C=C(\F)C(=O)c3cc(OC)c(OC)c(OC)c3)c2c1 | Hela (human cervical cancer cells) | > | 5000 |
| COc1ccc(/C=C\c2cc(OC)c(OC)c(OC)c2)cc1O [CA-4, Combretastatin A4, reference compound] | Hela (human cervical cancer cells) | = | 8 |
| COc1cc(C(=O)/C(F)=C/c2csc3ccccc23)cc(OC)c1OC | Hela (human cervical cancer cells) | = | 72 |
| COc1cc(C(=O)/C(F)=C/c2nc3ccccc3[nH]2)cc(OC)c1OC | Hela (human cervical cancer cells) | > | 5000 |
| COc1cc(C(=O)/C(F)=C/c2ccc3c(c2)CCO3)cc(OC)c1OC | Hela (human cervical cancer cells) | = | 42 |
| COc1cc(C(=O)/C(F)=C/c2cc3c(cc2Br)OCO3)cc(OC)c1OC | Hela (human cervical cancer cells) | > | 5000 |
| COC(=O)c1ccc2c(/C=C(\F)C(=O)c3cc(OC)c(OC)c(OC)c3)c[nH]c2c1 | Hela (human cervical cancer cells) | > | 5000 |
| COc1cc(C(=O)/C(F)=C/c2coc3ccccc23)cc(OC)c1OC | Hela (human cervical cancer cells) | = | 203 |
| COc1cc(C(=O)/C(F)=C/c2sc3ccccc3c2C)cc(OC)c1OC | Hela (human cervical cancer cells) | > | 5000 |
| COc1cc(C(=O)/C(F)=C/c2c(-c3ccccc3)[nH]c3ccccc23)cc(OC)c1OC | Hela (human cervical cancer cells) | = | 685 |
| COc1cc(C(=O)/C(F)=C/c2cc3c(cc2[N+](=O)[O-])OCO3)cc(OC)c1OC | Hela (human cervical cancer cells) | > | 5000 |
| COc1cc(C(=O)/C(F)=C/c2ccc3sc4ccccc4c3c2)cc(OC)c1OC | Hela (human cervical cancer cells) | > | 5000 |
| COc1cc(C(=O)/C(F)=C/c2cc3ccccc3s2)cc(OC)c1OC | Hela (human cervical cancer cells) | = | 2490 |
| COc1cc(C(=O)/C(F)=C/c2ccc3oc4ccccc4c3c2)cc(OC)c1OC | Hela (human cervical cancer cells) | > | 5000 |
| COc1cc(C(=O)/C(F)=C/c2cc3ccccc3o2)cc(OC)c1OC | Hela (human cervical cancer cells) | > | 5000 |
